Data credit: the supplement of paper PMC6555819

Test system: PPARg:RXRa 90nM:30nM, anti-RXR (NR concentration 90 nM, RXRa partner concentration 30 nM)
assayOverview: PBM binding z-score (relative to random genomic background probes); higher = stronger binding; sequences stand for … in GC…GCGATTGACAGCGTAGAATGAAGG
measurementLabel: PBM binding z-score
Numbers only.

[[record]]
seqstring = "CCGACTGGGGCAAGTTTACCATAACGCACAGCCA"
observedmeasurement = 0.451

[[record]]
seqstring = "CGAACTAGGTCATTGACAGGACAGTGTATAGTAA"
observedmeasurement = 5.88

[[record]]
seqstring = "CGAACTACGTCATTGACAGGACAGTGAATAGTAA"
observedmeasurement = -0.164


Below are 4 sequences. Give each one its PBM binding z-score.
1. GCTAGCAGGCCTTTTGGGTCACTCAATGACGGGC
2. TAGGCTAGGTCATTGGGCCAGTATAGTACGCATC
3. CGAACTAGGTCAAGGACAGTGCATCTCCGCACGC
4. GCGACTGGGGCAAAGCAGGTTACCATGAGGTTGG

*A*
1. -0.138
2. 2.24
3. 5.86
4. 0.335

For every record below, what is its PBM binding z-score?
1. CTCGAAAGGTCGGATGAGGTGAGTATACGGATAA
2. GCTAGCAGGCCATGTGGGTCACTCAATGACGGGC
3. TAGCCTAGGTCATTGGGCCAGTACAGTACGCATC
4. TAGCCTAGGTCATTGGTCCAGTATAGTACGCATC
5. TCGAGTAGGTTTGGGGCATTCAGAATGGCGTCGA
6. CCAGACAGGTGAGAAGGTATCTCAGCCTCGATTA
7. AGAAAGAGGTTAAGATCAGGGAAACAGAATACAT

*A*
1. 0.958
2. 0.415
3. 2.63
4. 2.27
5. 0.598
6. -0.148
7. 1.34

Hi! Can you tell me PBM binding z-score for each of these sequences?
1. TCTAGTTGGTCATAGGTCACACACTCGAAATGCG
2. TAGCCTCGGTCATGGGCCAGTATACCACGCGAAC
3. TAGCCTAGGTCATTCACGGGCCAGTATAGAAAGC
4. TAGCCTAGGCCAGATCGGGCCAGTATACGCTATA
5. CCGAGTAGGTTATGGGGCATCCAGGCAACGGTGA
6. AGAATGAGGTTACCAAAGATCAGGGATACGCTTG
7. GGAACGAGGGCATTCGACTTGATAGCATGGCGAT
8. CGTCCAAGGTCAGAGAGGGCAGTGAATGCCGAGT

*A*
1. 8.57
2. -0.0831
3. 1.74
4. -1.05
5. 4.17
6. 1.77
7. 0.28
8. 1.46

Batch request: PBM binding z-score for each of the following sequences.
1. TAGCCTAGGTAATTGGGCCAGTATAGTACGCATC
2. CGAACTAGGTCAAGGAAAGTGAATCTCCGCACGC
3. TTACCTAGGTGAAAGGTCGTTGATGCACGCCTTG
4. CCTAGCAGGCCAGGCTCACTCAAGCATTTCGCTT

*A*
1: -0.132; 2: 5.66; 3: 10.2; 4: -0.853

###

Tested on: FXR:RXRa (NR concentration 270 nM, RXRa partner concentration 90 nM)
assayOverview: PBM binding z-score (relative to random genomic background probes); higher = stronger binding; sequences stand for … in GC…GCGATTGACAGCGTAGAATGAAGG
Would you please tag the item Condition met when its PBM binding z-score is 1 or above, and Condition not met when it is below?

See these solved cases before continuing.
[[record]]
seqstring = "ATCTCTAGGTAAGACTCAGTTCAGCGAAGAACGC"
label = "Condition not met"

[[record]]
seqstring = "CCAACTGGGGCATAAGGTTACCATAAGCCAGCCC"
label = "Condition not met"

[[record]]
seqstring = "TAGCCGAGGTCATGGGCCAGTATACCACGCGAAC"
label = "Condition met"

[[record]]
seqstring = "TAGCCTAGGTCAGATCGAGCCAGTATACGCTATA"
label = "Condition met"

[[record]]
seqstring = "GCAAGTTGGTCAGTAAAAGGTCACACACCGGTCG"
label = "Condition met"


Next item in the queue.
*Q* Record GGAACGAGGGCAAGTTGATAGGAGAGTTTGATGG ; criterion: PBM binding z-score no lower than 1. Met?
*A* Condition not met
